# Test system: 217524-143-R1-J4-PDC spheroids with HUVEC/MSC, viability
# Experimental protocol: Anticancer human tumor 217524-143-R1-J4-PDC patient-derived pancreatic carcinoma cell line growth inhibition [CLK]
# Experimental conditions: second compound 0.316 µM; first compound 0.316 µM; stronger effect = lower value
Strictly below 30% in viability, T/C: criterion met. Otherwise: criterion not met.

Take the compound CC(Nc1ccc2c(c1)OCCn1cc(N3C(=O)OCC3C(F)F)nc1-2)C(N)=O (stereo not given) + CN1CCN(c2cc(C(=O)Nc3cc4cc(-c5cnn(C)c5)ccc4cn3)ccn2)CC1 and say whether its viability, T/C is less than 30%. criterion met

---

# Test system: 217524-143-R1-J4-PDC spheroids with HUVEC/MSC, viability
# Experimental protocol: Anticancer human tumor 217524-143-R1-J4-PDC cell line growth inhibition [CLK];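 note: spheroids exposed to agents for seven days before reading; 100% = DMSO vehicle control viability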
# Experimental conditions: second compound 0.0316 µM; first compound 0.00316 µM; stronger effect = lower value
Hi there, I'd appreciate the recorded viability, T/C for every entry that follows.

Worked examples, 4 compounds total:
Compound: CCN1CCN(Cc2ccc(Nc3ncc(F)c(-c4cc(F)c5nc(C)n(C(C)C)c5c4)n3)nc2)CC1 + CNC(=O)c1ccc(Nc2nc(OC3CCCC3)c3c(-c4ccc5nc(C)oc5c4)c[nH]c3n2)c(OC)c1
viability, T/C: 84.8%
//
Compound: COc1c(OCCCN2CCOCC2)ccc2c3n(c(=NC(=O)c4cnc(N)nc4)nc12)CCN3 + CNC(=O)c1ccc(Nc2nc(OC3CCCC3)c3c(-c4ccc5nc(C)oc5c4)c[nH]c3n2)c(OC)c1
viability, T/C: 74.9%
//
Compound: Cn1ncnc1[C@H]1c2n[nH]c(=O)c3cc(F)cc(c23)N[C@@H]1c1ccc(F)cc1 + CNC(=O)c1ccc(Nc2nc(OC3CCCC3)c3c(-c4ccc5nc(C)oc5c4)c[nH]c3n2)c(OC)c1
viability, T/C: 86.1%
//
Compound: CCN1CCN(Cc2ccc(Nc3ncc(F)c(-c4cc(F)c5nc(C)n(C(C)C)c5c4)n3)nc2)CC1 + CN1CCN(c2cc(C(=O)Nc3cc4cc(-c5cnn(C)c5)ccc4cn3)ccn2)CC1
viability, T/C: 93.3%

Okay, now this compound:
# query: viability, T/C of entry Cn1ncnc1[C@H]1c2n[nH]c(=O)c3cc(F)cc(c23)N[C@@H]1c1ccc(F)cc1 + CN1CCN(c2cc(C(=O)Nc3cc4cc(-c5cnn(C)c5)ccc4cn3)ccn2)CC1 61.8%

---

# Tested on: 217524-143-R1-J4-PDC spheroids with HUVEC/MSC, viability
# Experimental protocol: Anticancer human tumor 217524-143-R1-J4-PDC cell line growth inhibition [CLK];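 note: spheroids exposed to agents for seven days before reading; 100% = DMSO vehicle control viability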
# Experimental conditions: second compound 0.316 µM; first compound 3.16 µM; stronger effect = lower value
Value type: viability, T/C

Worked examples, 3 molecules total:
Molecule: Nc1ccn(C2OC(CO)C(O)C2(F)F)c(=O)n1 (stereo not given) + CNC(=O)c1ccc(Nc2nc(OC3CCCC3)c3c(-c4ccc5nc(C)oc5c4)c[nH]c3n2)c(OC)c1
Value type: viability, T/C
Result: 20.6%

Molecule: CC(Nc1ccc2c(c1)OCCn1cc(N3C(=O)OCC3C(F)F)nc1-2)C(N)=O (stereo not given) + CNC(=O)c1ccc(Nc2nc(OC3CCCC3)c3c(-c4ccc5nc(C)oc5c4)c[nH]c3n2)c(OC)c1
Value type: viability, T/C
Result: 3.59%

Molecule: COc1cccc2c1C(=O)c1c(O)c3c(c(O)c1C2=O)CC(O)(C(=O)CO)CC3OC1CC(N)C(O)C(C)O1 (stereo not given) + CN1CCN(c2cc(C(=O)Nc3cc4cc(-c5cnn(C)c5)ccc4cn3)ccn2)CC1
Value type: viability, T/C
Result: 1.19%

For the 7 molecules below, give their viability, T/C values.
1. CC(=O)O[C@H]1C(=O)[C@@]2(C)[C@H]([C@H](OC(=O)c3ccccc3)[C@]3(O)C[C@H](OC(=O)[C@H](O)[C@@H](NC(=O)c4ccccc4)c4ccccc4)C(C)=C1C3(C)C)[C@]1(OC(C)=O)CO[C@@H]1C[C@@H]2O + CNC(=O)c1ccc(Nc2nc(OC3CCCC3)c3c(-c4ccc5nc(C)oc5c4)c[nH]c3n2)c(OC)c1
2. CC1COCCN1c1cc(C2(S(C)(=N)=O)CC2)nc(-c2ccnc3[nH]ccc23)n1 (stereo not given) + CNC(=O)c1ccc(Nc2nc(OC3CCCC3)c3c(-c4ccc5nc(C)oc5c4)c[nH]c3n2)c(OC)c1
3. O=C(c1cc(Cc2n[nH]c(=O)c3ccccc23)ccc1F)N1CCN(C(=O)C2CC2)CC1 + CNC(=O)c1ccc(Nc2nc(OC3CCCC3)c3c(-c4ccc5nc(C)oc5c4)c[nH]c3n2)c(OC)c1
4. O=c1[nH]cc(F)c(=O)[nH]1 + CN1CCN(c2cc(C(=O)Nc3cc4cc(-c5cnn(C)c5)ccc4cn3)ccn2)CC1
5. C#Cc1c(F)ccc2cc(O)cc(-c3ncc4c(N5CC6CCC(C5)N6)nc(OCC56CCCN5CC(F)C6)nc4c3F)c12 (stereo not given) + CN1CCN(c2cc(C(=O)Nc3cc4cc(-c5cnn(C)c5)ccc4cn3)ccn2)CC1
6. CC(Nc1ccc2c(c1)OCCn1cc(N3C(=O)OCC3C(F)F)nc1-2)C(N)=O (stereo not given) + CN1CCN(c2cc(C(=O)Nc3cc4cc(-c5cnn(C)c5)ccc4cn3)ccn2)CC1
7. C#Cc1c(F)ccc2cc(O)cc(-c3ncc4c(N5CC6CCC(C5)N6)nc(OCC56CCCN5CC(F)C6)nc4c3F)c12 (stereo not given) + CNC(=O)c1ccc(Nc2nc(OC3CCCC3)c3c(-c4ccc5nc(C)oc5c4)c[nH]c3n2)c(OC)c1

1: 34.5%; 2: 20.1%; 3: 38.7%; 4: 15.7%; 5: 24.8%; 6: 3.77%; 7: 38.7%

---

# Tested on: 217524-143-R1-J4-PDC spheroids with HUVEC/MSC, viability
# Experimental protocol: Anticancer human tumor 217524-143-R1-J4-PDC cell line growth inhibition [CLK];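 note: spheroids exposed to agents for seven days before reading; 100% = DMSO vehicle control viability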
# Experimental conditions: second compound 1 µM; first compound 0.00949 µM; stronger effect = lower value
Hi there, I'd appreciate the recorded viability, T/C for every entry that follows.
One number for each entry, in %.

Molecule: NC(=O)C(=Cn1cnc(-c2cc(C(F)(F)F)cc(C(F)(F)F)c2)n1)c1cncnc1 + CNC(=O)c1ccc(Nc2nc(OC3CCCC3)c3c(-c4ccc5nc(C)oc5c4)c[nH]c3n2)c(OC)c1
Units text: %
Number: 18.8
--
Molecule: CC(C)CC(NC(=O)C(Cc1ccccc1)NC(=O)c1cnccn1)B(O)O (stereo unspecified) + CN1CCN(c2cc(C(=O)Nc3cc4cc(-c5cnn(C)c5)ccc4cn3)ccn2)CC1
Units text: %
Number: 0.77
--
Molecule: NC(=O)C(=Cn1cnc(-c2cc(C(F)(F)F)cc(C(F)(F)F)c2)n1)c1cncnc1 + CN1CCN(c2cc(C(=O)Nc3cc4cc(-c5cnn(C)c5)ccc4cn3)ccn2)CC1
Units text: %
Number: 0.79
--
Molecule: C=CC(=O)Nc1cc(Nc2nccc(-c3cn(C)c4ccccc34)n2)c(OC)cc1N(C)CCN(C)C + CNC(=O)c1ccc(Nc2nc(OC3CCCC3)c3c(-c4ccc5nc(C)oc5c4)c[nH]c3n2)c(OC)c1
Units text: %
Number: 25.9
--
Molecule: CC(C)CC(NC(=O)C(Cc1ccccc1)NC(=O)c1cnccn1)B(O)O (stereo unspecified) + CNC(=O)c1ccc(Nc2nc(OC3CCCC3)c3c(-c4ccc5nc(C)oc5c4)c[nH]c3n2)c(OC)c1
Units text: %
Number: 7.88

Okay, now this molecule:
Look up viability, T/C with 217524-143-R1-J4-PDC spheroids with HUVEC/MSC, viability for this molecule: C=CC(=O)Nc1cc(Nc2nccc(-c3cn(C)c4ccccc34)n2)c(OC)cc1N(C)CCN(C)C + CN1CCN(c2cc(C(=O)Nc3cc4cc(-c5cnn(C)c5)ccc4cn3)ccn2)CC1 1.87

---

# Tested on: 217524-143-R1-J4-PDC spheroids with HUVEC/MSC, viability
# Experimental protocol: Anticancer human tumor 217524-143-R1-J4-PDC cell line growth inhibition [CLK]; active means viability on the fitted dose curve at most 10% of control; inactive means the rest;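 note: spheroids exposed to agents for seven days before reading; 100% = DMSO vehicle control viability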
# Experimental conditions: second compound 10 µM; first compound 0.0316 µM
Please state which outcome applies, choosing from active, inactive

Completed entries (count: 4):
Compound: CC(CO)NC(=O)c1cc(-c2ccc(Cl)cc2)nn(-c2cnn(C)c2)c1=O (stereo not given) + CN1CCN(c2cc(C(=O)Nc3cc4cc(-c5cnn(C)c5)ccc4cn3)ccn2)CC1
Group label: active
//
Compound: COc1ccc([C@@H](O)c2cc(-c3ncnc4cc(N5CCOCC5)ccc34)c(F)cc2Cl)nn1 + CN1CCN(c2cc(C(=O)Nc3cc4cc(-c5cnn(C)c5)ccc4cn3)ccn2)CC1
Group label: active
//
Compound: Nc1ccn(C2OC(CO)C(O)C2(F)F)c(=O)n1 (stereo not given) + CNC(=O)c1ccc(Nc2nc(OC3CCCC3)c3c(-c4ccc5nc(C)oc5c4)c[nH]c3n2)c(OC)c1
Group label: inactive
//
Compound: COC1C=CCC(C)C(C)S(=O)(=O)NC(=O)c2ccc3c(c2)N(CC2CCC21)CC1(CCCc2cc(Cl)ccc21)CO3 (stereo not given) + CN1CCN(c2cc(C(=O)Nc3cc4cc(-c5cnn(C)c5)ccc4cn3)ccn2)CC1
Group label: active

# next compound below
What did this assay record as the result for COc1cccc2c1C(=O)c1c(O)c3c(c(O)c1C2=O)CC(O)(C(=O)CO)CC3OC1CC(N)C(O)C(C)O1 (stereo not given) + CNC(=O)c1ccc(Nc2nc(OC3CCCC3)c3c(-c4ccc5nc(C)oc5c4)c[nH]c3n2)c(OC)c1 ? inactive

Data origin, for the record: PubChem BioAssay AID2060624
